Reported pIC50 values are given for each entry in this list.
Molecular target: thrombin (Homo sapiens, UniProt P00734)
Construct: from tissue; host or cells: human plasma
Test: Inhibition of thrombin (THR)
Type: biochemical
Conditions: pH 8.6, 10 minute preincubation, 22° C.
pIC50: −log10 of the molar value.

| compound | pIC50 |
| --- | --- |
| CC1=C(C(=O)OC(c2ccccc2)c2ccccc2)N2C(=O)[C@H](Br)[C@H]2S(=O)(=O)C12CC2(C)c1ccccc1 (stereo partly shown) [Example 13 (2)] | < 4.40 |

In plain terms, CC1=C(C(=O)OC(C)(C)C)N2C(=O)[C@H](Br)[C@H]2S(=O)(=O)C12CC2(c1ccccc1)c1ccccc1 (stereo partly shown) [Example 3] has a documented pIC50 of < 4.38

In plain terms, CO[C@H]1C(=O)N2C(C(=O)N3CCCC3)=C(C)C3(CC3(c3ccccc3)c3ccccc3)S(=O)(=O)[C@H]12 (stereo partly shown) [Example 10] has a documented pIC50 of < 4.40

In plain terms, CC1=C(C(=O)N2CCCC2)N2C(=O)[C@H](Br)[C@H]2S(=O)(=O)C12CC2(c1ccccc1)c1ccccc1 (stereo partly shown) [Example 6] has a documented pIC50 of < 4.41

In plain terms, CCOC(=O)C1CC12C(C)=C(C(=O)OC(c1ccccc1)c1ccccc1)N1C(=O)[C@H](Br)[C@H]1S2(=O)=O (stereo partly shown) [Example 13 (1)] has a documented pIC50 of < 4.40

In plain terms, CO[C@H]1C(=O)N2C(C(=O)N3CCCCC3)=C(C)C3(CC3(c3ccccc3)c3ccccc3)S(=O)(=O)[C@H]12 (stereo partly shown) [Example 11] has a documented pIC50 of < 4.40

In plain terms, CO[C@H]1C(=O)N2C(C(=O)OCC(Cl)(Cl)Cl)=C(C)C3(CC3(c3ccccc3)c3ccccc3)S(=O)(=O)[C@H]12 (stereo partly shown) [Example 8] has a documented pIC50 of < 5.00

In plain terms, CO[C@H]1C(=O)N2C(C(=O)OC(c3ccccc3)c3ccccc3)=C(C)C3(CC3(c3ccccc3)c3ccccc3)S(=O)(=O)[C@H]12 (stereo partly shown) [Example 9] has a documented pIC50 of < 5.00

In plain terms, CC1=C(C(=O)OC(c2ccccc2)c2ccccc2)N2C(=O)[C@H](Cl)[C@H]2S(=O)(=O)C12CC2(c1ccccc1)c1ccccc1 (single isomer, unassigned) [Example 1] has a documented pIC50 of < 4.40

In plain terms, CCO[C@H]1C(=O)N2C(C(=O)OCC(Cl)(Cl)Cl)=C(C)C3(CC3(c3ccccc3)c3ccccc3)S(=O)(=O)[C@H]12 (stereo partly shown) [Example 7] has a documented pIC50 of < 5.00

In plain terms, CC1=C(C(=O)OC(c2ccccc2)c2ccccc2)N2C(=O)[C@H](Br)[C@H]2S(=O)(=O)C12CC2(c1ccccc1)c1ccccc1 (single isomer, unassigned) [Example 2] has a documented pIC50 of < 4.40

In plain terms, CC1=C(C(=O)OC(c2ccccc2)c2ccccc2)N2C(=O)[C@H](Br)[C@H]2S(=O)(=O)C12CC2(c1ccc(Cl)cc1)c1ccc(Cl)cc1 (single isomer, unassigned) [Example 12] has a documented pIC50 of < 4.26

In plain terms, CC1=C(C(=O)OC(c2ccccc2)c2ccccc2)N2C(=O)[C@H](Br)[C@H]2S(=O)(=O)C12CC2(c1ccc(F)cc1)c1ccc(F)cc1 (single isomer, unassigned) [Example 13] has a documented pIC50 of < 4.40
